molecular target: ERα (Homo sapiens, UniProt P03372); construct: host or cells: MCF7; experiment: Estrogen receptor degradation activity: breast cancer cell ERα in cell western assay (MCF7 cells); format: cell-based; conditions: 0.3 μM, 4 hours, relative to fulvestrant 0.1 μM positive control
Sequence (P03372 whole entry): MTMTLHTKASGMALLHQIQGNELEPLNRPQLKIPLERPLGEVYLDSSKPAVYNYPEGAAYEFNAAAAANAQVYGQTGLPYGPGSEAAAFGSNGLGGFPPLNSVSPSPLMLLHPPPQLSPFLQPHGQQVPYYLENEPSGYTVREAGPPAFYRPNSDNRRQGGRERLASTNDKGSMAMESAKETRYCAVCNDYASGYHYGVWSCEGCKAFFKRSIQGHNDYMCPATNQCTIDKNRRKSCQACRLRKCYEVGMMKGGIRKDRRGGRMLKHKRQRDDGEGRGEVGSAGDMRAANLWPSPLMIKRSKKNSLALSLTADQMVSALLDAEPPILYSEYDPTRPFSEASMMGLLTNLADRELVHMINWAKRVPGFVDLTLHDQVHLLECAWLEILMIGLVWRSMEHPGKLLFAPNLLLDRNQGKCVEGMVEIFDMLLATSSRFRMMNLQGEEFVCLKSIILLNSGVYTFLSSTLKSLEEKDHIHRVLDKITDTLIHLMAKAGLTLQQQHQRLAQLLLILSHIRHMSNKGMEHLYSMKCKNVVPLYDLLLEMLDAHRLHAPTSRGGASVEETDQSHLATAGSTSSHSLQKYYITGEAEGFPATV
Structures can show the parent of a compound that is named as a salt.
# reported % Degradation At 0.3 μM; entries follow
property name: % Degradation At 0.3 μM (%)

>>> endpoint_result("Cc1cc(F)ccc1C1=C(c2cc(F)c(C=C3CN(CCCF)C3)cc2F)c2ccc(C(=O)O)cc2CCC1.Cl [Example 65]")
95
>>> endpoint_result("O=C(O)c1ccc2c(c1)OCCC(c1ccc(Cl)cc1Cl)=C2c1ccc(C=C2CN(CCCF)C2)cc1 [Example 114, hydrochloride]")
91
>>> endpoint_result("Cc1cc(C=C2CN(CCCF)C2)cc(F)c1C1=C(c2ccc(Cl)cc2Cl)CCCc2cc(C(=O)O)ccc21.Cl [Example 66]")
98
>>> endpoint_result("Cc1c(C2=C(c3ccc(C=C4CN(CCC(F)F)C4)cc3)c3ccc(C(=O)O)cc3CCC2)ccc(F)c1F [Example 22]")
93
>>> endpoint_result("O=C(O)c1ccc2c(c1)CCCC(c1cc(C(F)(F)F)ccc1C(F)(F)F)=C2c1ccc(C=C2CN(CCCF)C2)cc1 [Example 151]")
90
>>> endpoint_result("Cc1ccc(C2=C(c3ccc(C=C4CN(CCCF)C4)cc3)c3ccc(C(=O)O)cc3CCC2)c(C(F)(F)F)c1 [Example 70]")
101
